// provenance: PubChem BioAssay AID1159506

Exercise: state measured seed-corrected z-score for each of the sequences provided.
assay: Identification of proteins required for the processing of the EWS-FLI1 nascent transcript; conditions: TC32 Ewing sarcoma NR0B1-luc vs CMV-luc, 48 h; screened at 20 nM (by protocol);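 note: robust z of luciferase light less the median z of siRNAs with the same seed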
Over roughly 59,000 sequences, the read-out has its median near -0.00055; the lowest 2% begin near -2. Only a selection was taken, and the lowest values are over-represented in it overall.

// query seed-corrected z-score value for entry UAUGGAACUGUAUAUAGGA against EVA1C
0.1

Requested field: seed-corrected z-score. Item: UUGUUUGCAGGUUCUACUU against DDX19B
-0.121

Give the measured seed-corrected z-score of UAGCUGUCCGUGAAGAUCC against ADCYAP1 .
0.344

Returns the measured seed-corrected z-score for the input sequence. Input: UUUAUUAUGAUCUUCCGAG against PIP
0.162

Suppose we examine the sequence UUUUAUUUUCACAGUAGCA against LOC441239 ; what seed-corrected z-score value has been reported?
0.865

Need seed-corrected z-score, item UUUGCAGCCUCGGUUAUAG against PWWP2B
0.352

Request the reported seed-corrected z-score associated with UAUACUCCCGCACAUAGCC against PI4KA
-0.673

Any idea what its seed-corrected z-score is? The sequence is AAGUGGACUUGAGAUGUGG against PPP1R1A
-0.084

====

test: Identification of proteins required for the processing of the EWS-FLI1 nascent transcript; conditions: TC32 Ewing sarcoma NR0B1-luc vs CMV-luc, 48 h; screened at 20 nM (by protocol);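 note: robust z of luciferase light less the median z of siRNAs with the same seed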
Whole data set: some 59,000 sequences, median the read-out near -0.00055, cut for the lowest 2% near -2. The sample as a whole holds a higher share of the lowest values than the screen did.
ASSAY_METRIC: seed-corrected z-score
Answer with the value's number alone.

# query: seed-corrected z-score of entry UCCUUCACAAACAUGUCCC against SDK1
0.154

I have this sequence here, UGCGAUUGAAUAUUCUACG against CSRNP3 , and I need its recorded seed-corrected z-score.
-2.35

Need seed-corrected z-score of UCUUGUCGAAAAGCUCACC against KIAA1161 , thanks.
0.789

What value of measured seed-corrected z-score is listed for UUUGUCAUUACCCGAACUG against RNASE11 ?
0.455

Given UUUGCUAUCUUGCUGAUGC against LINC00615 , state its recorded seed-corrected z-score.
0.184

====

Kindly state seed-corrected z-score for each of the entries shown.
experiment: Identification of proteins required for the processing of the EWS-FLI1 nascent transcript; conditions: TC32 Ewing sarcoma NR0B1-luc vs CMV-luc, 48 h; screened at 20 nM (by protocol);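 note: robust z of luciferase light less the median z of siRNAs with the same seed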
The full ranking holds about 59,000 sequences; the median of the read-out is about -0.00055, and the lowest 2% start at about -2. The sample as a whole holds a higher share of the lowest values than the screen did.
The answer should be written as a number, with no unit following it.

Which seed-corrected z-score reading was recorded for the sequence UUCACUUUCAGAUCGGGAC against C18orf25 ?
-1.35

Value lookup for seed-corrected z-score; key = UUCUCCUUCAUCAAGUUCA against S100A7L2
0.705

Returns the measured seed-corrected z-score for the input sequence. Input: UCAGCUGAUAUCUUGUUGC against UBOX5
0.0283

Find the recorded seed-corrected z-score belonging to UUCUGUUCAAAUCCAUUGG against BUD13 and report it.
-0.753

Quick one: seed-corrected z-score of AACAUAACAGUUGAAGUGA against TMEM244 ?
-0.604

Given the entry UCUCCUAUAGGACCUGUGC against MGAM , report its measured seed-corrected z-score.
-0.17

Using the record for UUGAGAUAGGCUGAGACCU against TMPRSS4 , report its seed-corrected z-score.
-0.502

Entry UCGAAGUUUACUGCGGUCC against HINFP has what seed-corrected z-score?
-2.19

Recorded seed-corrected z-score for UGGUAUUCAAAAUAGUCGC against TLK1 , please?
-0.673

# query: seed-corrected z-score of entry UCUCUCAUCAAUAUGCUCU against MTHFD2
0.352

Reported seed-corrected z-score, sequence UCAUGUAAUCUAGCGAUCG against ENTHD1 : ____
0.768

====

Task for the reader: assign each of the following sequences its reported seed-corrected z-score.
experiment: Identification of proteins required for the processing of the EWS-FLI1 nascent transcript; conditions: TC32 Ewing sarcoma NR0B1-luc vs CMV-luc (EWS-FLI1 target promoter against control promoter), 48 h; screened at 20 nM (by protocol);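 note: robust z of luciferase light less the median z of siRNAs with the same seed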
The full ranking holds about 59,000 sequences; the median of the read-out is about -0.00055, and the lowest 2% start at about -2. The sample as a whole holds a higher share of the lowest values than the screen did.
Please state the value as a number alone, without comment.

Which seed-corrected z-score reading was recorded for the sequence AUCGCUCCCAUAGUUCACC against KRT20 ?
-0.0454

Need seed-corrected z-score, item UCAGUUUGAUUAUUUCUCU against RASSF4
0.41

Need seed-corrected z-score, item UGGUUGUUUAAGUCGACUG against USP33
-2.43

I'd like to know its seed-corrected z-score. The sequence in question is UCUGUAGUCAGUUUGGUUG against LDB1
-0.7

Which value of seed-corrected z-score has been reported for UUAAACUUCACGUUGUCCU against RPL38 in the records?
-2.01

Fill in: seed-corrected z-score of UAGAGUGCUAAGGACAGGG against GFI1B is ___
0.226

Can you look up the measured seed-corrected z-score of AAUACGAUGACAAUAAGGC against FAM200A for me?
-0.251

For UGCUUUUAGAAAGUCCAUG against HAUS1 , what is its reported seed-corrected z-score?
-0.637

# get_value(readout='seed-corrected z-score', item= UCUUCGAAAGUGACCAGCA against INTS6 )
-0.292

For UGAUAUAGCCUCCAUAUGC against INVS , what is its reported seed-corrected z-score?
-0.175

Endpoint output: seed-corrected z-score of UCGUGGUUCUCAAUUUUGC against PKLR . Value?
-0.494

// lookup seed-corrected z-score for UUUACGAUAAUCAACCUUC against BCO1
0.641

Requested field: seed-corrected z-score. Item: AGAUGUGAUAGUGCUCUGG against TMEM52B
-2.02

Endpoint output: seed-corrected z-score of GAAUUUCAGCCGUAGCACG against TMUB1 . Value?
-2.19

So what's the measured seed-corrected z-score for this one? UUUCCGUACAUUGUGGUCC against ATP13A5
0.276

// seed-corrected z-score lookup, key: UCAGGUAGAGCAUAGCUUG against SPX
-1.13

GET /values?readout=seed-corrected z-score&item= AUAGGAAGAACUCUGUUUG against SCHIP1
-2.03

// query seed-corrected z-score value for entry UGGUAGUUCACGUUGAGCC against CASKIN2
-2.53

Give the measured seed-corrected z-score of UAGGUAAAUAGCCUCGUGC against CEACAM19 .
0.0325

Given the entry UUCUGGAGCAGUUCGACAG against CNPPD1 , report its measured seed-corrected z-score.
0.781

Field request: seed-corrected z-score | item: UAACAGCGAAUUCCAAGGC against ZBTB12
-2.07

Name the reported seed-corrected z-score value associated with the sequence AAUGGUAUCAUUCACCUUG against RPS4X
1.54

Item under review: UUGGUUGCAAAGGAACUCC against NAB1 . Reported seed-corrected z-score?
-2.58

What seed-corrected z-score value was documented for this sequence, UCCGGAGUAAGCUUCAACC against DHX9 ?
-0.429

For AAUUCCAUGAGGGCCUUCC against CDKN2AIPNLP1 , what is its reported seed-corrected z-score?
-2.53

# get_value(readout='seed-corrected z-score', item= UAUCUUCGUACUCAUUUGG against TNFAIP6 )
-2.49

Could you tell me which seed-corrected z-score is on file for AAUUCCAAAACCAAUGUGC against MS4A12 ?
0.147

Which seed-corrected z-score value is on record for AAUGCUAUUACGGUUGAUG against FBXL6 ?
-0.269

// query seed-corrected z-score value for entry AAACGAUCCAUAUAGUCCG against MIER3
0.02

What measured seed-corrected z-score goes with UGAGUGAUAGUCUAGACUC against SOX9-AS1 ?
0.0191

Returns the measured seed-corrected z-score for the input sequence. Input: UCUGGGUUGAGGUCUACGA against LGALSL
1.22

Fill blank: measured seed-corrected z-score of the sequence AGUUCACUAAGUCAAUAGC against TMEM44 is ____.
-1.14

I'd like to know its seed-corrected z-score. The sequence in question is UUCUCAUCAAGCUGUCUCC against SH3RF2
0.136

State the recorded seed-corrected z-score for this entry: UAAAUCUGCUUAUCUCUUC against TFAM
-0.445

Any idea what seed-corrected z-score was measured for UAAUUGUGACACUUGUUCC against TSLP ?
-1.67

Could you share which seed-corrected z-score value was measured for AACCGUUUCAUAAACUCCC against MCMBP ?
0.188

So what does the record say about seed-corrected z-score for UUUUGAUGCUGUCUACAGG against METTL2B ?
-1.55

Which measured seed-corrected z-score value corresponds to AAGGUGAUAAGUACAGUCA against LINC00977 ?
0.26

GET /values?readout=seed-corrected z-score&item= UCUCCAACCAAUUGCCUCC against LOC200726
-0.147

Quick check: seed-corrected z-score of UCAUGGGUCACGUCAGCUG against SLC2A1 ?
-0.895
